- Tested on: MM cell line
- assay name: Multiple Myeloma Assay
- Type: cell-based
- condition details: dose 1 μM; 72 hrs in culture
property name: Cell Concentration, MM cell line

Look over these answered cases.
COc1cc(Br)c(Nc2nc(-c3cnc4ccc(Cl)cn34)cs2)c(Br)c1 [Cpd 24]
0.34 ± 0.14 ×10^6
COc1ccc(Nc2nc(-c3c(C)nc4ncccn34)cs2)cc1 [Cpd 14]
0.24 ± 0.01 ×10^6
Cc1nc2ncccn2c1-c1csc(Nc2ccc(Cl)cc2)n1 [Cpd 49]
0.21 ± 0.01 ×10^6

Ask | What does the data say about its Cell Concentration, MM cell line? Entry: COCCOc1cc(Br)c(Nc2nc(-c3cnc4ccc(Cl)cn34)cs2)c(Br)c1 [Cpd 134]
Reply | 1.06 ± 0.01 ×10^6

Ask | Sample COc1cc(C)c(Nc2nc(-c3cnc4ccc(Cl)cn34)cs2)c(C)c1 [Cpd 27] — what was its Cell Concentration, MM cell line?
Reply | 0.17 ± 0.00 ×10^6

Ask | Tell me the measured Cell Concentration, MM cell line of COc1cc(Br)c(Nc2nc(-c3c(C)nc4ncccn34)cs2)c(Br)c1 [Cpd 1] , please.
Reply | 0.54 ± 0.03 ×10^6
